- EXPERIMENT: In vitro plasma stability
- EXPERIMENTAL CONTEXT: human, plasma
Residues, ends and D or L forms follow the SMILES beside them.
PROPERTY: half-life

The recorded half-life for CC(=O)N[C@@H](CCC(=O)O)C(=O)N[C@@H](CC(=O)O)C(=O)N[C@@H](CC(=O)O)C(=O)N[C@@H](CO)C(=O)N[C@@H](CC(=O)O)C(=O)N[C@H](C(=O)N[C@@H](Cc1c[nH]c2ccccc12)C(=O)N[C@@H](Cc1c[nH]c2ccccc12)C(=O)NCC(=O)NCC(=O)N[C@@H](C)C(=O)N[C@@H](CC(=O)O)C(=O)N[C@H](C(=O)N[C@@H](CC(=O)O)C(N)=O)[C@@H](C)O)C(C)C [APPWT] (Ac-EDDSDVWWGGADTD-NH2) is > 48 h

* * *

- TARGET SYSTEM: Sushi domains (SD1/2) protein
- EXPERIMENT: Fluorescence polarization (FP) competition assay with AJAP-1probe, calculated Ki
- Assay type: binding
- EXPERIMENTAL CONTEXT: Table 6, elongation and truncation scan of PIANP binding epitope; read-out: Ki (nM) mean ± SEM
Residues, ends and D or L forms follow the SMILES beside them.
Recorded Ki values for a group of compounds are listed next.

Past entries and their recorded results:
COMPOUND	RESULT
CC[C@H](C)[C@H](NC(=O)[C@H](C)NC(=O)[C@H](Cc1c[nH]c2ccccc12)NC(=O)[C@@H]1CCCN1C(C)=O)C(=O)N[C@H](C(=O)N[C@@H](Cc1c[nH]c2ccccc12)C(=O)NCC(N)=O)C(C)C [PWAIVWG] (Ac-PWAIVWG-NH2)	579 nM
CC[C@H](C)[C@H](NC(=O)[C@H](C)NC(=O)[C@H](Cc1c[nH]c2ccccc12)NC(=O)[C@@H]1CCCN1C(C)=O)C(=O)N[C@H](C(=O)N[C@@H](Cc1c[nH]c2ccccc12)C(=O)NCC(=O)N1CCC[C@H]1C(=O)N[C@H](C(=O)N[C@H](C(N)=O)C(C)C)[C@@H](C)O)C(C)C (Ac-PWAIVWGPTV-NH2)	561 nM
CC[C@H](C)[C@H](NC(=O)[C@H](C)NC(=O)[C@H](Cc1c[nH]c2ccccc12)NC(=O)[C@@H]1CCCN1C(C)=O)C(=O)N[C@H](C(=O)N[C@@H](Cc1c[nH]c2ccccc12)C(=O)NCC(=O)N1CCC[C@H]1C(=O)N[C@H](C(N)=O)[C@@H](C)O)C(C)C (Ac-PWAIVWGPT-NH2)	716 nM

With those in mind, consider the next compound.
The recorded Ki for CC[C@H](C)[C@H](NC(=O)[C@H](C)NC(=O)[C@H](Cc1c[nH]c2ccccc12)NC(=O)[C@@H]1CCCN1C(C)=O)C(=O)N[C@H](C(=O)N[C@@H](Cc1c[nH]c2ccccc12)C(N)=O)C(C)C [PWAIVW] (Ac-PWAIVW-NH2) is 706 nM

* * *

- TARGET SYSTEM: Sushi domains (SD1/2) protein
- EXPERIMENT: Fluorescence polarization (FP) competition assay with AJAP-1probe, calculated Ki
- Assay type: binding
- EXPERIMENTAL CONTEXT: Table 7, Ala-, D-amino acids and N-methylation scans of APPWT; read-out: Ki (nM) mean ± SEM
Non-standard residues stand in square brackets, D forms with d. Residues, ends and D or L forms follow the SMILES beside them. NMeW = CN[C@@H](Cc1c[nH]c2ccccc12)C(=O)O; NMeD = CN[C@@H](CC(=O)O)C(=O)O; Sar = CNCC(=O)O
Recorded Ki values for a group of compounds are listed next.
Please state the figure in nM; there is no need to write the unit.

Past entries and their recorded results:
COMPOUND	Ki (nM)
CC(=O)N[C@@H](CCC(=O)O)C(=O)N[C@@H](CC(=O)O)C(=O)N[C@@H](CC(=O)O)C(=O)N[C@@H](CO)C(=O)N[C@@H](CC(=O)O)C(=O)N[C@H](C(=O)N[C@@H](Cc1c[nH]c2ccccc12)C(=O)N[C@@H](Cc1c[nH]c2ccccc12)C(=O)NCC(=O)NCC(=O)N[C@@H](C)C(=O)N[C@@H](C)C(=O)N[C@H](C(=O)N[C@@H](CC(=O)O)C(N)=O)[C@@H](C)O)C(C)C (Ac-EDDSDVWWGGAATD-NH2)	653
CC(=O)N[C@@H](CCC(=O)O)C(=O)N[C@@H](CC(=O)O)C(=O)N[C@@H](CC(=O)O)C(=O)N[C@@H](CO)C(=O)N[C@@H](CC(=O)O)C(=O)N[C@H](C(=O)N[C@@H](Cc1c[nH]c2ccccc12)C(=O)N(C)[C@@H](Cc1c[nH]c2ccccc12)C(=O)NCC(=O)NCC(=O)N[C@@H](C)C(=O)N[C@@H](CC(=O)O)C(=O)N[C@H](C(=O)N[C@@H](CC(=O)O)C(N)=O)[C@@H](C)O)C(C)C [EDDSDVW(N-Me-W)GGADTD] (Ac-EDDSDVW[NMeW]GGADTD-NH2)	1380
CC(=O)N[C@@H](CCC(=O)O)C(=O)N[C@@H](CC(=O)O)C(=O)N[C@@H](CC(=O)O)C(=O)N[C@@H](CO)C(=O)N[C@@H](CC(=O)O)C(=O)N[C@H](C(=O)N[C@@H](Cc1c[nH]c2ccccc12)C(=O)N[C@@H](Cc1c[nH]c2ccccc12)C(=O)NCC(=O)N(C)CC(=O)N[C@@H](C)C(=O)N[C@@H](CC(=O)O)C(=O)N[C@H](C(=O)N[C@@H](CC(=O)O)C(N)=O)[C@@H](C)O)C(C)C (Ac-EDDSDVWWG[Sar]ADTD-NH2)	161
CC(=O)N[C@@H](CCC(=O)O)C(=O)N(C)[C@@H](CC(=O)O)C(=O)N[C@@H](CC(=O)O)C(=O)N[C@@H](CO)C(=O)N[C@@H](CC(=O)O)C(=O)N[C@H](C(=O)N[C@@H](Cc1c[nH]c2ccccc12)C(=O)N[C@@H](Cc1c[nH]c2ccccc12)C(=O)NCC(=O)NCC(=O)N[C@@H](C)C(=O)N[C@@H](CC(=O)O)C(=O)N[C@H](C(=O)N[C@@H](CC(=O)O)C(N)=O)[C@@H](C)O)C(C)C (Ac-E[NMeD]DSDVWWGGADTD-NH2)	655

With those in mind, consider the next compound.
The recorded Ki for CC(=O)N[C@@H](CCC(=O)O)C(=O)N[C@@H](CC(=O)O)C(=O)N[C@@H](CC(=O)O)C(=O)N[C@@H](CO)C(=O)N[C@@H](CC(=O)O)C(=O)N[C@H](C(=O)N[C@@H](Cc1c[nH]c2ccccc12)C(=O)N[C@@H](Cc1c[nH]c2ccccc12)C(=O)NCC(=O)NCC(=O)N[C@@H](C)C(=O)N[C@@H](CC(=O)O)C(=O)N[C@H](C(=O)N(C)[C@@H](CC(=O)O)C(N)=O)[C@@H](C)O)C(C)C (Ac-EDDSDVWWGGADT[NMeD]-NH2) is 565

* * *

- TARGET SYSTEM: Sushi domains (SD1/2) protein
- EXPERIMENT: Fluorescence polarization (FP) competition assay with AJAP-1probe, calculated Ki
- Format: binding
- EXPERIMENTAL CONTEXT: Table 16, ncAAs incorporated peptides; read-out: Ki (nM) mean ± SEM
Non-standard residues stand in square brackets, D forms with d. Residues, ends and D or L forms follow the SMILES beside them. 2Nal = N[C@@H](Cc1ccc2ccccc2c1)C(=O)O
PROPERTY: Ki (nM)
Please state the figure in nM; there is no need to write the unit.

COMPOUND	TARGET SYSTEM	Ki / nM
CC[C@H](C)[C@H](NC(=O)[C@H](Cc1ccc2ccccc2c1)NC(=O)[C@H](CC(=O)O)NC(=O)[C@H](CC(=O)O)NC(=O)[C@H](CC(=O)O)NC(=O)[C@H](CCC(=O)O)NC(C)=O)C(=O)N[C@@H](CC(=O)O)C(=O)N[C@@H](Cc1c[nH]c2ccccc12)C(=O)NCC(=O)N1CCC[C@H]1C(=O)N[C@H](C(=O)N[C@@H](CO)C(=O)N[C@@H](CC(=O)O)C(=O)N[C@@H](CC(=O)O)C(=O)N[C@@H](CC(=O)O)C(N)=O)[C@@H](C)O [Peptide 21] (Ac-EDDD[2Nal]IDWGPTSDDD-NH2)	Sushi domains (SD1/2) protein	5.3

With those in mind, consider the next compound.
The recorded Ki for COc1ccc(C[C@H](NC(=O)[C@H](CO)NC(=O)[C@H](CC(=O)O)NC(=O)[C@H](CC(=O)O)NC(=O)[C@H](CCC(=O)O)NC(C)=O)C(=O)N[C@H](C(=O)N[C@@H](Cc2c[nH]c3ccccc23)C(=O)N[C@@H](Cc2c[nH]c3ccccc23)C(=O)NCC(=O)NCC(=O)N[C@@H](C)C(=O)N[C@@H](CC(=O)O)C(=O)N[C@H](C(=O)N[C@@H](CC(=O)O)C(N)=O)[C@@H](C)O)C(C)C)cc1 (Ac-EDDSY(Me)VWWGGADTD-NH2) is 101
